What koff was measured for each of the following?
Target: T1, Flt-1 antigen (species not stated) (Homo sapiens (Human), UniProt P17948 27-656)
T1 construct: also called sFlt-1; soluble Flt-1
T1 sequence (P17948 other isoform, or with tags, fused parts or gaps limits assumed, form in doubt): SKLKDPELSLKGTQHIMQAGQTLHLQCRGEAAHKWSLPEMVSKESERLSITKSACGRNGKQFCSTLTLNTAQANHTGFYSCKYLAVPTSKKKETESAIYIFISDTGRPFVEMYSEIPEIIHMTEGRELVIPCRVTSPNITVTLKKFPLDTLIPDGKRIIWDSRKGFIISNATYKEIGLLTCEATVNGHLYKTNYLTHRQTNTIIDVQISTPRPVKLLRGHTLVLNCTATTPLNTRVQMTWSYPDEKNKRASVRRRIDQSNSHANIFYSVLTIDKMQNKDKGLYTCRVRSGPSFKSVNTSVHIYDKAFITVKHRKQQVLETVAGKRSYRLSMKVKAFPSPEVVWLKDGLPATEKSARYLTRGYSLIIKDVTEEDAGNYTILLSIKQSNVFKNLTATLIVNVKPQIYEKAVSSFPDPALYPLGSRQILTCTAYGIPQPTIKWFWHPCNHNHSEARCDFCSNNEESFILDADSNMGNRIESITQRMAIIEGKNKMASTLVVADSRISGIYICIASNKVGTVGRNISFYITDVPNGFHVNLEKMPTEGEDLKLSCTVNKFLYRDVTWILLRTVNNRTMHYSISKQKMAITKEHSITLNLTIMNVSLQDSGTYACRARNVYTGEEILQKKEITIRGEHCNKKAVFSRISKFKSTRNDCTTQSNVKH
Experiment: Biacore
Numbers only; they are read as s⁻¹.

Request: Specify koff for 27H4 (antibody, human IgG1, lambda, V domains shown, also called 27H4 WT; antibody 27H4) VH: ELQLVESGGGLVQPGGSLRLSCAASGFTFRDYSMSWVRQAPGKGLEWVSAISWNGDSTYYAESLKGRFTISRDNAKNTLYLQMNSLRAEDTAVYYCAKSWATPIESLYYYGSDYWGQGTLVTVSS VL: SYELTQPLSVSVALGQTARITCGGNNIGSQTAQWYQQKPGQAPVLVIYANNRRPSGIPERFSGSKSGNTATLTISRAQAEDEADYYCQVWEDSTQAIVFGGGTKLTVLG and stop.
Result: 8.2e-05

Request: Specify koff for 27H9 (antibody, human IgG1, lambda, V domains shown, also called 27H9 WT; 27H9 WT 23/07) VH: EVQLLESGGGLVQPGGSLRLSCAASGFTFRDYSMSWVRQAPGKGLEWVSAISWNGDSTYYAESAKGRFTISRDNSKNTLYLQMNSLRAEDTAVYYCAKSWATPIESLYYYGSDYWGQGTLVTVSS VL: SYELTQPLSVSVALRQTARITCGGNNIGSQTAQWYQQKPGQAPVLVIYANNRRPSGIPERFSGSKSGNTATLTISRAQAEDEADYYCQVWDESTQAIVFGGGTKLTVLG and stop.
Result: 8.4e-05

Request: Specify koff for 27H6 (antibody, human IgG1, lambda, V domains shown, also called 27H6 WT; antibody 27H6) VH: ELQLVESGGGLVQPGGSLRLSCAASGFTFSDYSASWVRQAPGKGLEWVSAISWSGDSTYYAESVKGRFTIFRDNSKNTLYLQMNSLRAEDTAVYYCAKSWATPIESLYYYGSDYWGQGTLVTVSS VL: SYELTQPLSVSVALRQAAKITCGGNNIGSQTAQWYQQKPGQAPVLVIYANNRRPSGIPERFSGSKSGNTATLTISRAQAGDEADYYCQVWDGSTQAIVFGGGTKLTVLG and stop.
Result: 0.00014

Request: Specify koff for 21B3 (antibody, V domains shown, also called 21B3 WT; antibody 21B3) VH: ELQLVESGGGLVQPGGSLRLSCAASGFTFRDYSMSWVRQAPGKGLEWVSAISWNGDSTYYAESMKGRFTISRDNAKNTLYLQMNSLKSEDTAVYYCAKSWATPIESLYYYGMDYWGKGTLVTVSS VL: SYELTQSPSVSVALRQTAKITCGGNNIGSQTAQWYQQKPGQAPVLVIYANNRRPSGIPERFSGSKSGNTATLTISGAQAEDEADYYCQVWDGSTQAIVFGGGTHLTVL and stop.
Result: 0.00017
